Taken from PubChem BioAssay (Tox21).

# Method: qHTS assay to identify small molecule that activate the aryl hydrocarbon receptor (AhR) signaling pathway - cell viability counter screen (AID 743086); also: nearly all actives have a fitted effect of over 45% in size
# Applied Conditions: HepG2-AhR-luc viability, CellTiter-Fluor, 24 h; series mostly up to 70.3 µM
Inconclusive results are not listed. Activity calls are given as the source filed them. Calls follow the shape of the dose curve; as a rule, active = well fitted cell-killing curve with a large enough effect in the repeat runs; inconclusive = weak or mixed curves, or effect the other way; inactive = flat fitted curve, though single readings scatter.
Labels: 1 = active, -1 = inactive

[[record]]
molecule = "O=C1c2ccccc2C(=O)C1C(=O)C(c1ccccc1)c1ccc(Cl)cc1 (stereo not given)"
label_class = -1

[[record]]
molecule = "Oc1c(Cl)c(Cl)cc(Cl)c1Cl"
label_class = -1

[[record]]
molecule = "Clc1ccc(CSC(Cn2ccnc2)c2ccc(Cl)cc2Cl)cc1 (stereo not given)"
label_class = -1

[[record]]
molecule = "OC(c1ccc(Cl)cc1)(c1ccc(Cl)cc1)C(Cl)(Cl)Cl"
label_class = -1

[[record]]
molecule = "CN(C)C(=S)[S-].CN(C)C(=S)[S-].[Cu+2]"
label_class = 1

[[record]]
molecule = "COc1ccc(/C(=C/C(=O)N2CCOCC2)c2ccc(Cl)cc2)cc1OC"
label_class = -1

[[record]]
molecule = "CCCCOCN(C(=O)CCl)c1c(CC)cccc1CC"
label_class = -1

[[record]]
molecule = "C[C@@H]1CC[C@@]2(OC1)O[C@H]1[C@@H](O)[C@H]3[C@@H]4CC[C@H]5C[C@@H](O[C@@H]6O[C@H](CO)[C@H](O[C@@H]7O[C@H](CO)[C@@H](O)[C@H](O[C@@H]8OC[C@@H](O)[C@H](O)[C@H]8O)[C@H]7O[C@@H]7O[C@H](CO)[C@@H](O)[C@H](O[C@@H]8O[C@H](CO)[C@@H](O)[C@H](O)[C@H]8O)[C@H]7O)[C@H](O)[C@H]6O)[C@H](O)C[C@]5(C)[C@H]4CC[C@]3(C)[C@H]1[C@@H]2C"
label_class = 1

[[record]]
molecule = "CC(=O)[O-].[Tl+]"
label_class = -1

[[record]]
molecule = "COP(=O)(OC)SCn1c(=O)oc2cc(Cl)cnc21"
label_class = -1

[[record]]
molecule = "CC1(C)CN=C(NN=C(/C=C/c2ccc(C(F)(F)F)cc2)/C=C/c2ccc(C(F)(F)F)cc2)NC1"
label_class = 1

[[record]]
molecule = "Fc1ccc(Oc2ccnc3cc(Cl)cc(Cl)c23)cc1"
label_class = -1

[[record]]
molecule = "CN(C)[C@@H]1C(=O)C(C(N)=O)=C(O)[C@@]2(O)C(=O)C3=C(O)c4c(O)ccc(Cl)c4[C@@](C)(O)[C@H]3C[C@@H]12"
label_class = -1

[[record]]
molecule = "CN(C)CCc1c[nH]c2ccc(O)cc12"
label_class = -1

[[record]]
molecule = "BrCBr"
label_class = -1

[[record]]
molecule = "c1ccc2c(c1)[nH]c1cnccc12"
label_class = -1

[[record]]
molecule = "CC1(C)C(/C=C(\\Cl)C(F)(F)F)C1C(=O)OC(C#N)c1cccc(Oc2ccccc2)c1 (stereo not given)"
label_class = -1

[[record]]
molecule = "CC(C)CC(C)N (stereo not given)"
label_class = -1

[[record]]
molecule = "CC[C@H]1C[C@@H]2C[C@H]3c4[nH]c5ccc(OC)cc5c4CCN(C2)[C@@H]13"
label_class = -1

[[record]]
molecule = "CCCCCCCCCCCCCCC(Br)C(=O)O (stereo not given)"
label_class = -1

